experimental-protocol: yeast display, Sf9 membrane polyspecificity reagent, FACS + sequencing; frameworks hold sequencing errors
metric: polyreactivity (PSR sort gate)

{"columns": ["sequence-chain", "result"],
 "data": [
  ["QVQLVESGGGLVQAGGSLRLTCAASGSTFVWYGMGWYRQAPGKEREFVAAISTSGGRTYYADSVKGRFTISRDNAKNTVYLQMNSLKPEDTAVYYCATRPYFTYRWYDYWGQGTQVTVSS", "high polyreactivity"],
  ["QVQLVESGGGLVQAGGSLRLSCAASGSTFRGYVMGWYRQAPGKERELVAAITWGGGRTYYADSVKGRFTISRDNAKNTVYLQMNSLKPEDTAVYYCAARVRGQGSYQFGYWGQGTQVTVSS", "high polyreactivity"]
]}
